test system: CAKI-1 renal; assay: NCI tumour cell line growth inhibition, 48 h
The compounds listed here are annotated with their TGI.

compound	measured-on	TGI
O=C1CC(C(O)C(O)C(O)CO)CC(=O)N1 (stereo unspecified)	CAKI-1 renal	> 100 µM
Clc1ccc(/C=c2\nc(-c3ccccc3)n3c2nc2ccccc23)cc1	CAKI-1 renal	> 100 µM
CCCCCCCCCCCCCCCCC(=O)NCC(=O)NCC(=O)NC(Cc1ccccc1)C(=O)Oc1ccc([N+](=O)[O-])cc1 (stereo unspecified)	CAKI-1 renal	32.2 µM
[N-]=[N+]=CC(=O)OC1CCc2ccccc21 (stereo unspecified)	CAKI-1 renal	52.5 µM
COc1ccc(-c2cc(=O)c3c(OC)c(O)c(OC)cc3o2)cc1	CAKI-1 renal	> 100 µM
O=C(/C=C/c1ccccc1)Nc1ncc(Cc2ccccc2)s1	CAKI-1 renal	> 50.2 µM
CCOC(=O)C1Nc2ccc([N+](=O)[O-])cc2[C@H]2OCC[C@@H]12 (stereo partly specified)	CAKI-1 renal	> 100 µM
CCC1CCC2C3CC=C4CC(OC(C)=O)C(N)CC4(C)C3CCC12C (stereo unspecified)	CAKI-1 renal	22.9 µM
O=C(O)COc1cc(-c2ccccc2F)nc2cc3c(cc12)OCO3	CAKI-1 renal	> 100 µM
COc1ccccc1CN=C1NC(=O)/C(=C/c2ccc3ncccc3c2)S1	CAKI-1 renal	> 25 µM
COc1ccc2c(c1)[n+]([O-])c(/C(C)=N/NC(N)=S)c(C)[n+]2[O-]	CAKI-1 renal	> 100 µM

---

test system: CAKI-1 renal; test: NCI tumour cell line growth inhibition, 48 h; in the data active means GI50 below about 0.43 µM; inactive means the rest
Outcomes: active, inactive

compound	class-assignment
Cc1cc(C)nc(NS(=O)(=O)c2ccc(Nc3nc4nc(NCc5ccccc5)nc(-c5ccc(O)cc5)c4c(=O)[nH]3)cc2)n1	inactive
N=C(N)c1ccc(CS(=O)(=O)F)cc1	inactive
COc1cc(/C=C/C(=O)c2ccc(F)cc2)ccc1OCCCCOc1cc2c(cc1OC)C(=O)N1CCCC1C=N2 (centres undefined)	inactive
COc1ccc(/C=C(/C(=O)N2CCN(c3ccc(C)cc3)CC2)c2cc(OC)c(OC)c(OC)c2)cc1N	inactive
CC(C)C[C@H](NC(=O)[C@H](Cc1ccccc1)NC(=O)c1cnccn1)B(O)O	active
C=CC1CC12C(=O)C1OC2(C)C2C(=O)c3c(O)cccc3C(=O)C12 (centres undefined)	inactive
COc1ccc(Nc2[nH]n(C3=Nc4ccccc4Sc4ccccc43)c(=O)c2C#N)cc1	active
CS(=O)(=O)OCCCCOS(C)(=O)=O	inactive
[O-]c1ccccc1[C-]=Nc1ccccc1O.[O-]c1ccccc1[C-]=Nc1ccccc1O.[O]=[U]=[O]	inactive

---

Recorded TGI by entry
system: CCRF-CEM leukemia; assay: NCI tumour cell line growth inhibition, 48 h

molecule	TGI
C[C@@]1([C@H](OC(=O)c2cccc3ccccc23)C(N)=O)CO1	> 100 µM
CCOC(=O)CC[C@H](NC(=O)c1ccc(CNc2nc3cc(C(F)(F)F)ccc3nc2C(=O)OCC)cc1)C(=O)OCC	> 100 µM
NNC(=O)C(O)C(O)C(O)CO (stereo unspecified)	> 100 µM
C=CC(C)CCC(C/C=C(\C)CCCC(C)C)C(=C)CCCC(C)C (stereo unspecified)	> 100 µM
COc1cc2c(NCCN(C)C)nc3c4cc5c(cc4ccc3c2cc1OC)OCO5	6.44 µM
CCCCN1C(=O)C2c3[nH]c4ccccc4c3C3CCCCC3C2C1=O (mixture of isomers)	37.5 µM
Cc1ccc(N/C(=C(/C(Cl)=C(Cl)Cl)[N+](=O)[O-])n2nnc3ccccc32)cc1	64.5 µM
CS(=O)(=O)c1nccc(-c2c(-c3cccc(OCc4ccccc4)c3)nc3sccn23)n1	> 100 µM
CN(C)c1ccc(/C=N/NC(=O)CSc2nc3sc4c(c3c(=O)n2-c2ccccc2)CCCCC4)cc1	> 100 µM
CCCCCCCCCCCCCCCCSS(C)(=O)=O	18.4 µM
O=C(NCCN1CCOCC1)Nc1nc2ccc(Sc3nnc4ccc(-c5ccc(F)cc5)nn34)cc2s1	> 100 µM
O=C1CC2(CCN(CC3COc4ccccc4O3)CC2)C(=O)N1N1CCCCCC1 (stereo unspecified)	> 100 µM
COC(=O)c1c(O)ccc2c1c1cc3ccccc3c(O)c1n2Cc1ccccc1Cl	> 100 µM
CC(/C=C/C=C\C=C\C=C(/C)C(=O)NC(C)CO)=C\C(C)C(O)/C(C)=C/C(C)CCc1ccccc1 (stereo unspecified)	> 56.6 µM
Nc1ccc([As](=O)(O)O)cc1	> 100 µM
CC(=O)N(CN1C(=O)CCC1C(=O)O)c1ccc(C)cc1 (stereo unspecified)	> 100 µM
O=C1c2ccccc2-c2nc(-c3cccs3)cc3c2c1nc1ccccc13	> 100 µM
COc1ccc(NC(=O)COc2ccccc2)c(C(N)=O)c1	> 100 µM
COc1cccc(-c2cc(C(=O)Nc3ccc(Cl)cc3)nc(N)n2)c1	> 100 µM
COc1ccc(/C=C(/C(=O)N2CCN(c3ccc(C)cc3)CC2)c2cc(OC)c(OC)c(OC)c2)cc1N	> 100 µM
COc1ccc2nc(-c3ccc(Cl)cc3)cc(-c3nnc(SCC(=O)Nc4ccc(/C(C)=N\O)cc4)o3)c2c1	> 50 µM

---

system: DU-145 prostate; assay: NCI tumour cell line growth inhibition, 48 h

compound	GI50
Oc1ccccc1/C=N/Nc1nc2ccccc2s1	9.35 µM
Cc1cc(NCCCNc2ccnc3cc(Cl)ccc23)nc(Nc2ccc(C(=O)N3CCCCC3)cc2)n1	3.42 µM
COc1ccc(Nc2[nH]n(C3=Nc4ccccc4Sc4ccccc43)c(=O)c2C#N)cc1	2.83 µM
COc1cc(-c2nn(-c3ccc(NC(=O)Nc4ccc(Cl)c(C(F)(F)F)c4)cc3)cc2-c2ccncc2)ccc1Cl	2.47 µM
Cc1cc(C)nc(NS(=O)(=O)c2ccc(Nc3nc4nc(NCc5ccccc5)nc(-c5ccc(O)cc5)c4c(=O)[nH]3)cc2)n1	25.9 µM
CC/C=C\C[C@H](O)C/C=C1/C(=O)C=C[C@@H]1C/C=C\CCCC(=O)OCCS(=O)(=O)c1ccccc1	5.24 µM
C[C@@]1([C@H](OC(=O)c2cccc3ccccc23)C(N)=O)CO1	1.61 µM
Cc1c(C)n(CC(O)CNC2CCCCC2C)c2ccccc12 (centres undefined)	17.8 µM
COc1ccccc1CN=C1NC(=O)/C(=C/c2ccc3ncccc3c2)S1	11 µM

---

tested on: 786-0 renal; assay: NCI tumour cell line growth inhibition, 48 h; in the data active means GI50 below about 0.43 µM; inactive means the rest
Outcomes: 1.0 = active, 0.0 = inactive

smiles-input	class-assignment
CC[C@]12C=CCN3CC[C@@]4(c5ccc(OC)cc5N(C)[C@H]4[C@@](O)(C(=O)OC)[C@@H]1OC(=O)CCCC[P+](c1ccccc1)(c1ccccc1)c1ccccc1)[C@@H]32	0.0
CCCCCCCC(=O)SCC/C=C/[C@@H]1CC(=O)NCc2cccc(n2)C2=N[C@@](C)(CS2)C(=O)N[C@@H](C(C)C)C(=O)O1	1.0
COc1ccc(-c2cnc(SCC(=O)c3c(C)n(C)n(-c4ccccc4)c3=O)n2-c2ccc(OC)cc2)cc1	0.0

---

tested on: SK-MEL-2 melanoma; test: NCI tumour cell line growth inhibition, 48 h; in the data active means GI50 below about 0.43 µM; inactive means the rest
Outcomes: active, inactive

smiles-input	class-assignment
C=C(c1ccc(OC)c(/C=C/C(=O)c2cc(OC)c(OC)c(OC)c2)c1)c1cc(OC)c(OC)c(OC)c1	inactive
[O-]c1ccccc1[C-]=Nc1ccccc1O.[O-]c1ccccc1[C-]=Nc1ccccc1O.[O]=[U]=[O]	inactive
CCCCCCCC(=O)SCC/C=C/[C@@H]1CC(=O)NCc2cccc(n2)C2=N[C@@](C)(CS2)C(=O)N[C@@H](C(C)C)C(=O)O1	active
COc1ccc2c(c1)C(=O)c1c-2n(CCCCl)c(=O)c2cc([N+](=O)[O-])ccc12	inactive
CN(C)c1ccc(/C=N/NC(=O)CSc2nc3sc4c(c3c(=O)n2-c2ccccc2)CCCCC4)cc1	inactive
O=C(NCCN1CCOCC1)Nc1nc2ccc(Sc3nnc4ccc(-c5ccc(F)cc5)nn34)cc2s1	inactive
Cc1cc(NCCCNc2ccnc3cc(Cl)ccc23)nc(Nc2ccc(C(=O)N3CCCCC3)cc2)n1	inactive
C[C@@]1([C@H](OC(=O)c2cccc3ccccc23)C(N)=O)CO1	inactive
CCN(CC)c1ccc(CNc2cc(C)nc3ccc(OC)cc23)cc1	inactive

---

system: BT-549 breast; test: NCI tumour cell line growth inhibition, 48 h
Here, each record is paired with measured TGI data.

compound	TGI
CC1(C)[C@H]2CC[C@](C)(C2)[C@]1(S)Cc1ccccn1	> 100 µM
Nc1ncnc2c1ncn2C1OC(CO)CC1O (stereo unspecified)	92 µM
COc1ccc(OC)c2sc(N3C(=O)/C(=C/c4ccc(SC)cc4)N=C3c3ccccc3)nc12	88 µM
CCN(CC)c1ccc(CNc2cc(C)nc3ccc(OC)cc23)cc1	10.7 µM
CC(SC(=S)N(C)C)C(=O)Nc1nnc(-c2ccc(Cl)cc2)o1 (stereo unspecified)	> 100 µM
COc1ccc2c(c1)C(=O)c1c-2n(CCCCl)c(=O)c2cc([N+](=O)[O-])ccc12	> 100 µM
